Data provenance is paper PMC11141866.

experiment: MOLM-13 CDX multiple ascending dose study; assay type: in vivo; details: male, mouse, in vivo, po; daily p.o., MOLM-13 CDX NCG mice; read-out: maximum tolerated dose (MTD), daily dose
observedProperty: MTD

Data request: Supply reported MTD belonging to this compound: CCCCOc1cccc(-c2ccc(-c3cc(C(=O)O)c4cc(F)ccc4n3)cc2)c1 [HOSU-53]
Data returned: 10 to 20 mg/kg
